The molecules listed here are annotated with their CLint scaled at 1 μM.
test: Hepatocyte Stability Assay, human hepatocytes; type: in vitro ADME; conditions: cryopreserved hepatocytes, read-out: Human Heps CLint

[
  {
    "molecule-smiles": "Cn1cc(C(F)(F)F)cc(Nc2nc3ncc(Oc4ccnc(NC(=O)O[C@@H]5CCOC5)c4)c(C#N)c3n2C)c1=O",
    "CLint scaled at 1 μM": "6 to 12 mL/min/kg"
  }
]

Next item in the queue.
Short answer for COC(=O)Nc1cc(Oc2cnc3nc(Nc4cc(C(F)(F)F)cn(C)c4=O)n(C)c3c2C#N)ccn1 : CLint scaled at 1 μM was ≤ 6 mL/min/kg
